Would you mind telling me the reported DC50 of each entry?
experimentalTarget: IKZF2 (Homo sapiens (Human), UniProt Q96SW2+Q9UKS7)
Sequence (Q9UKS7 whole entry): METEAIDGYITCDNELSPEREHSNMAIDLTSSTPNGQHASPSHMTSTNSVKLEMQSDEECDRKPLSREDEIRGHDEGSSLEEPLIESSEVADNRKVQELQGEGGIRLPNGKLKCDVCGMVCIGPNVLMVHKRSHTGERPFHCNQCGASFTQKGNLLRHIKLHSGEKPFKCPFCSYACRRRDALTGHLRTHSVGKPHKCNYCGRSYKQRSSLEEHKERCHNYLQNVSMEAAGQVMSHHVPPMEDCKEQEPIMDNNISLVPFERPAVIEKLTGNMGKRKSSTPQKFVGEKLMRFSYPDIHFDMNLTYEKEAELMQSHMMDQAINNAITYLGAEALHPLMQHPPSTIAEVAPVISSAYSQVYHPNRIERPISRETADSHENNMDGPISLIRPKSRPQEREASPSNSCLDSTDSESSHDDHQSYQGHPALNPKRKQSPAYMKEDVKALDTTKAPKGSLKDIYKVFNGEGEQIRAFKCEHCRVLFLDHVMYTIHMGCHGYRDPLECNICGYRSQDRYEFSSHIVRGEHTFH
Sequence (Q96SW2 whole entry): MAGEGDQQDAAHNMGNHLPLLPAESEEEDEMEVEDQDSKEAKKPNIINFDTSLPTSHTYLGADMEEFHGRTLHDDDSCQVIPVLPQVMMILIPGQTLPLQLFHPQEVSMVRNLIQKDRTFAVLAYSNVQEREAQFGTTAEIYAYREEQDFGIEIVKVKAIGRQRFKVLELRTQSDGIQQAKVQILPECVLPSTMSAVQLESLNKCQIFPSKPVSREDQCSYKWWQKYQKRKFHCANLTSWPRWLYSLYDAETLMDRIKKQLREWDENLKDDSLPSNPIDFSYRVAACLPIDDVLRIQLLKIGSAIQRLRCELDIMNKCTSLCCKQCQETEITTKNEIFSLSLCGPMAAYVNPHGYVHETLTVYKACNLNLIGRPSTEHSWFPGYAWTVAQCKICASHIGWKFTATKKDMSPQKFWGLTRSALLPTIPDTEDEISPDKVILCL
Sequence (Q16531 2-1140 partner): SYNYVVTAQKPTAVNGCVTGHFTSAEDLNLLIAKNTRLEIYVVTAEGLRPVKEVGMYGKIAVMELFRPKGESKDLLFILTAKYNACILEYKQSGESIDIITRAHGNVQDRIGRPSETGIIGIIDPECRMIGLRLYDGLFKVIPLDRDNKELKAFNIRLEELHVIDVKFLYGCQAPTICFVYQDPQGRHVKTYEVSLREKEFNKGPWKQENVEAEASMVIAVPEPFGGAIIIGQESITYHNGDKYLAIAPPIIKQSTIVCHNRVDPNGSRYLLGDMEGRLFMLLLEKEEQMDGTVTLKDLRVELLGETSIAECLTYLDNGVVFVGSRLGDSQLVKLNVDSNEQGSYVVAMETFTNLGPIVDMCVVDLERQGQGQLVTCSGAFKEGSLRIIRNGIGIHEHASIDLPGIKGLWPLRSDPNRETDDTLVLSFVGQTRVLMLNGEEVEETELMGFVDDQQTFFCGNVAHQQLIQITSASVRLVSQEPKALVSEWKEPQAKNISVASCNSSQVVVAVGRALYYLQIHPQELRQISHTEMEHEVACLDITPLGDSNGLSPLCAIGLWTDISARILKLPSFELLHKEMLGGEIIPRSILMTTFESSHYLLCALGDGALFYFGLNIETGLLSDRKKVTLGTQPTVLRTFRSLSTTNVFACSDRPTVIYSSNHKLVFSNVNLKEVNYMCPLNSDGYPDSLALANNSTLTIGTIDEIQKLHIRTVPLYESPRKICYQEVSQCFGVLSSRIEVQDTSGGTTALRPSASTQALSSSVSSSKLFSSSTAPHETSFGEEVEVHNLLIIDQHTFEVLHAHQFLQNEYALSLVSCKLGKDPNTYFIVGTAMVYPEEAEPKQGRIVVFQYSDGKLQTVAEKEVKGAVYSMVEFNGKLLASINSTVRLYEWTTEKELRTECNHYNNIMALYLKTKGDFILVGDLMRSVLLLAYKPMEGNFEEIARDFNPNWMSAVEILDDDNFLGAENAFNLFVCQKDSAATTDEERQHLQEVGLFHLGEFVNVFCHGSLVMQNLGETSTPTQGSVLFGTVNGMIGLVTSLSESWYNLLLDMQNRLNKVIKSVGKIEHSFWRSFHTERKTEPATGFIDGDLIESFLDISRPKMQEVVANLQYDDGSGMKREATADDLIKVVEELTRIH
assayMethodText: In vitro IKZF2 HiBit Assay (HEK293T Flp-in-HiBiT cells)
Assay type: cell-based
testConditions: HEK293T Flp-in-HiBiT cells, 6 hrs incubation; read-out: IKZF2 HiBit DC50

>>> result("O=C1CCC(N2Cc3cc(-c4nc(CN5CCCC5)c5ccn(C6CCC6)c5n4)ccc3C2=O)C(=O)N1 (stereo not drawn)")
"1 to 10 nM"

# batch size: 8; output DC50 per entry
1. O=C1CCC(N2Cc3cc(-c4cc(CN5CCCC5)c5nccc(OC6CCC6)c5n4)ccc3C2=O)C(=O)N1 (stereo not drawn)
2. Cn1ccc2c(CN3CC4(CCOCC4)C3)cc(-c3ccc4c(c3)CN(C3CCC(=O)NC3=O)C4=O)nc21 (stereo not drawn)
3. CCNc1n[nH]c2c(CN3CCCC3)cc(-c3ccc4c(c3)CN(C3CCC(=O)NC3=O)C4=O)nc12 (stereo not drawn)
4. O=C1CCC(N2Cc3cc(-c4cc(CN5CCCC5)c5c(n4)CCC5)ccc3C2=O)C(=O)N1 (stereo not drawn)
5. CC(C)Nc1n[nH]c2c(CN3CC4COCC4C3)cc(-c3ccc4c(c3F)CN(C3CCC(=O)NC3=O)C4=O)nc12 (stereo not drawn)
6. O=C1CCC(N2Cc3cc(-c4cc(CN5CCCC5)c5ccn(C6CNC6)c5n4)ccc3C2=O)C(=O)N1 (stereo not drawn)
7. O=C1CCC(N2Cc3c(ccc(-c4cc(CN5CCCC5)c5ccn(C6COC6)c5n4)c3F)C2=O)C(=O)N1 (stereo not drawn)
8. CC(C)Nc1ccnc2c(CN3CCCC3)cc(-c3ccc4c(c3)CN(C3CCC(=O)NC3=O)C4=O)nc12 (stereo not drawn)

Result:
1: 1 to 10 nM; 2: < 1 nM; 3: 1 to 10 nM; 4: < 1 nM; 5: 1 to 10 nM; 6: 100 to 1000 nM; 7: < 1 nM; 8: 10 to 100 nM

# batch size: 3; output DC50 per entry
1. O=C1CCC(N2Cc3c(ccc(-c4cc(CN5CCC(F)CC5)c5ccn(C6CS(=O)(=O)C6)c5n4)c3F)C2=O)C(=O)N1 (stereo not drawn)
2. O=C1CCC(N2Cc3cc(-c4ncn5ccc(CN6CCCC6)cc45)ccc3C2=O)C(=O)N1 (stereo not drawn)
3. Nc1nn(C2CC2)c2c(CN3CCCC3)cc(-c3ccc4c(c3)CN(C3CCC(=O)NC3=O)C4=O)nc12 (stereo not drawn)

Result:
1: < 1 nM; 2: 10 to 100 nM; 3: 1 to 10 nM

# batch size: 3; output DC50 per entry
1. Cn1cnc(-n2ccc3c(CN4CCCC4)cc(-c4ccc5c(c4)CN([C@H]4CCC(=O)NC4=O)C5=O)nc32)c1
2. CC1CCN(Cc2cc(-c3ccc4c(c3)CN(C3CCC(=O)NC3=O)C4=O)nc3c2ccn3C)CC1 (stereo not drawn)
3. CS(=O)(=O)C1CCN(Cc2cc(-c3ccc4c(c3)CN(C3CCC(=O)NC3=O)C4=O)nc3c2ccn3C2COC2)CC1 (stereo not drawn)

Result:
1 to 10 nM
< 1 nM
100 to 1000 nM
